test.details: Pharmacokinetics in dogs
assay.context: male, beagle, dog, plasma, iv, 1 mg/kg

{"compound": "COC(=O)[C@H](CSC1CC(=O)N(CCC(=O)O)C1=O)NC(=O)CC[C@H](NC(=O)c1ccc(NCc2cnc3nc(N)[nH]c(=N)c3n2)cc1)C(=O)O (stereo partly shown)", "unit.of.measurement": "h", "half-life": 1.28}

----------
// AUC(0-t) lookup, one value per entry
test.details: in vivo
assay.context: beagle, dog, in vivo, sc, 2.4 mg/kg
measured.property: AUC(0-t) (µM·h)

{"compound": "Nc1nc(N)c2nc(CNc3ccc(C(=O)N[C@@H](CCC(=O)O)C(=O)O)cc3)cnc2n1 [EC1886, aminopterin, reference compound]", "measured.property": "AUC(0-t)", "recorded.number": 0.0417}
{"compound": "N=c1[nH]c(N)nc2ncc(CNc3ccc(C(=O)N[C@@H](CCC(=O)NNC(=O)OCCSSC[C@@H](NC(=O)[C@H](CCC(=O)NC[C@H](O)[C@@H](O)[C@H](O)[C@H](O)CO)NC(=O)[C@@H](CCC(=O)O)NC(=O)[C@H](CCC(=O)NC[C@H](O)[C@@H](O)[C@H](O)[C@H](O)CO)NC(=O)[C@@H](CCC(=O)O)NC(=O)[C@H](CCC(=O)NC[C@H](O)[C@@H](O)[C@H](O)[C@H](O)CO)NC(=O)CC[C@H](NC(=O)c4ccc(NCc5cnc6nc(N)[nH]c(=O)c6n5)cc4)C(=O)O)C(=O)O)C(=O)O)cc3)nc12 [EC1669, reference compound]", "measured.property": "AUC(0-t)", "recorded.number": 4.07}

----------
test.details: Pharmacokinetics in dogs
assay.context: beagle dog plasma; EC1669 dosed SC 2.4 mg/kg (1073 nmol/kg), N=4
measured.property: Cmax (nM)

{"compound": "NNC(=O)CC[C@H](NC(=O)c1ccc(NCc2cnc3nc(N)nc(N)c3n2)cc1)C(=O)O [EC0470, aminopterin gamma-hydrazide]", "measured.property": "Cmax", "recorded.number": 66.5}

----------
test.details: Pharmacokinetics in dogs
assay.context: male, beagle, dog, plasma, sc, 2.43 mg/kg
measured.property: half-life (h)

{"molecule": "COC(=O)[C@H](CSC1CC(=O)N(CCC(=O)O)C1=O)NC(=O)CC[C@H](NC(=O)c1ccc(NCc2cnc3nc(N)[nH]c(=N)c3n2)cc1)C(=O)O (stereo partly shown)", "recorded.number": 2.14}
